target: Methyl-CpG-binding domain protein 2 (Homo sapiens) (UniProt Q9UBB5); assay: inhibitors of MBD2 binding to methylated DNA, primary screen, biochemical, TR-FRET, DNA-binding domain, human (AID 686964); conditions: MBD2 binding to methylated oligonucleotide, at 4.4 µM
Sequence (Q9UBB5 whole entry, looked up, the tested form may be a part): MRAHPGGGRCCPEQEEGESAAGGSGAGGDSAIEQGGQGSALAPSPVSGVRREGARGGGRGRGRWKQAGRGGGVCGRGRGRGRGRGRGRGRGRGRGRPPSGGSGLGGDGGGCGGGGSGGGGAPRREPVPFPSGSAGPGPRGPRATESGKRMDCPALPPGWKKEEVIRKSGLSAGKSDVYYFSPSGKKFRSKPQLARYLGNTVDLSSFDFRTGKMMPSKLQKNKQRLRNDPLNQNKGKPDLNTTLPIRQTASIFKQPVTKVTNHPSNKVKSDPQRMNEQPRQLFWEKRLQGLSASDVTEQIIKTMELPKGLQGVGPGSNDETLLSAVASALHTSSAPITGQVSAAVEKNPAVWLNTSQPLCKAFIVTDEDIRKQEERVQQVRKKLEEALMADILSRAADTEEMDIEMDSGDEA
Among all 370,000 compounds or so, about 1,100 (0.3%) were called active. No stated cut-off is given here; in the data, active means inhibition above about 13%; inactive means the rest. Many of the other results were omitted from the sample, so actives are more common in it than they were.
Bench note: report the call from 1 = active, -1 = inactive

Input line: What is the recorded call for this compound in the test? O=C(c1c[nH]c2ccccc12)N1CCC(Oc2cccnc2)CC1
Output line: -1

Input line: Called result for C=CS(=O)(=O)N(Cc1nnn(Cc2ccccc2)c1Br)[C@H](C(=O)OC)C(C)C
Output line: -1

Input line: What was the test verdict on COC(=O)c1cc2c(c3c4ccccc4n(S(=O)(=O)c4cccc(C)c4)c13)C(=O)N(Cc1ccccc1)C2 ?
Output line: -1

Input line: // outcome(item) with item = COC(=O)c1ccc2nc(-c3ccc(Cl)cc3)c(Cc3cccc(F)c3)n2c1
Output line: -1

Input line: Recorded call for C[C@H](O)[C@@H]1C(=O)N2CCc3c([nH]c4c(-c5ccc6c(c5)OCO6)cccc34)[C@@H]2C[C@@H]1N(C)C(=O)c1ccco1 ?
Output line: -1

Input line: Query: recorded result category for CCOc1ccc(S(=O)(=O)N2CCC(c3ccccc3)CC2)cc1C(=O)O in this test
Output line: 1

Input line: For this compound, state the assay outcome: CC(=O)N1C[C@@H](CO)[C@@H](N(C)C(=O)C(C)(C)C)C[C@H]1c1ccccc1Br
Output line: -1

Input line: Give the logged outcome of this assay for the following compound: CC(C)c1nc(CNC(=O)CC2C(=O)NCCN2Cc2ccoc2)cs1 (stereo not given)
Output line: -1

Input line: State the result this test recorded for O=C(Nc1cc(Cl)cc(Cl)c1)OCCN1CCCC12CCC(c1ccccc1)CC2 (stereo not given) .
Output line: -1

Input line: Assay outcome for CCOc1ccccc1CN1CCN(C2CCC2)CC1CCO (stereo not given) : what was it?
Output line: -1

Input line: For this compound, state the assay outcome: Cc1ccc(O)c(NC(=O)c2cc(-c3ccco3)on2)c1
Output line: -1

Input line: State the result this test recorded for CCC[C@H]1C(=O)CC[C@@]23CCCN2C(=O)CCC[C@@H]13 .
Output line: -1

Input line: Which outcome was entered for the compound Cc1c(CN2CCC(C)CC2)c(=O)n(-c2ccccc2)n1C in this test?
Output line: -1

Input line: Query: recorded result category for CCOc1nc(OCC)nc(-n2cc(-c3ccccc3)nn2)n1 in this test
Output line: -1

Input line: Given COC(=O)c1ccc2nc(-c3cccc(Br)c3)c(Cc3ccc(OC)cc3C)n2c1 , state the outcome it received in this test.
Output line: 1

Input line: // param item: COC(=O)c1c(NC(=O)c2ccc(S(=O)(=O)N3CCOCC3)cc2)sc2c1CCN(C(C)C)C2 ; yields the recorded call
Output line: 1

Input line: Hi team, can someone confirm the assay call for O=C(Nc1cc(F)cc(F)c1)OC1CCC12CCC(c1ccccc1)CC2 (stereo not given) ?
Output line: -1

Input line: Query: recorded result category for CC(=O)N1CCc2cc(S(=O)(=O)NCCC(=O)N3CCCC3)ccc21 in this test
Output line: -1

Input line: Please share the test call associated with COC(=O)c1ccc2nc(-c3ccccc3)c(Cc3ccc(OC)cc3C)n2c1 .
Output line: -1

Input line: Answer briefly: the call reported for C[C@H]1[C@H](c2ccccc2)Oc2cc(Br)ccc2S(=O)(=O)N1Cc1cccc(F)c1 in this assay.
Output line: -1

Input line: In this assay, the call recorded for C=CCN1C(=O)c2ccc(C(=O)N3CCC(C(=O)OCC)CC3)cc2C1=O was what?
Output line: 1

Input line: Assay result, entry Cc1ccc(S(=O)(=O)N(CCc2ccccc2)c2ccc3c(c2)C2CC3CCN2C(=O)OCc2ccccc2)cc1 (stereo not given) — outcome?
Output line: -1

Input line: Please state the recorded outcome for this compound: Cc1ccc(C)c(NC(=O)c2ccc(OC(=O)c3ccco3)cc2)c1
Output line: 1

Input line: Any idea what this test logged for CCOC(=O)C1CCCN(C(=O)c2ccc(C)c(F)c2)CC1 (stereo not given) ?
Output line: -1

Input line: Hey, what did the test say about O=C(O)Cn1cnc2c(NCc3ccccc3)ncnc21 ?
Output line: -1

Input line: Check the results log: what was the call for O=C(c1ccc(C(F)(F)F)cc1)N1CCC(=O)N([C@H](COCc2ccccc2)Cc2ccccc2)CC1 ?
Output line: -1

Input line: For this compound, state the assay outcome: CCOC(=O)[C@]12CCCC=C1N(CCCOC)C(=O)[C@@H]2CC(=O)N1CCOCC1
Output line: -1

Input line: Record request — test call for CCc1c(-c2ccc(F)cc2)ncn1Cc1cccc(-c2ccccc2)c1
Output line: -1

Input line: Recorded test outcome, item O=C(CNC(=O)c1ccccc1)OC(C(=O)Nc1cc([N+](=O)[O-])ccc1F)c1ccccc1 (stereo not given)
Output line: -1

Input line: Hi, sorry to bother you, what did the test record for COc1cc(/C=C/C(=O)n2cnc3ccccc32)cc(OC)c1OC ?
Output line: -1

Input line: Recorded call for Cc1c(C=O)n(C)n(-c2ccccc2)c1=O ?
Output line: 1

Input line: How did this test come out for Cc1cccc(N2CCN(Cc3c(C)n(C)n(-c4ccccc4)c3=O)CC2)c1C ?
Output line: -1

Input line: Status in this test for Cc1ccccc1C(=O)N[C@H](C(=O)N1CCC[C@H]1C(=O)NCc1ccccc1)C(C)C ?
Output line: -1

Input line: What classification did Cc1ccc(Cn2cc(CN3[C@@H](C)COc4cc(Br)ccc4S3(=O)=O)nn2)cc1 end up with in this test?
Output line: -1

Input line: Any idea what this test logged for COC(=O)C[C@H]1CC[C@H]2[C@H](COc3ccc(NC(=O)C4CC4)cc3C(=O)N2C)O1 ?
Output line: -1

Input line: Per the assay record, what outcome was assigned to COC(=O)[C@]12C[C@H](CC(=O)NCc3ccc(OC)c(OC)c3)C(=O)N(Cc3ccccc3)C1=C[C@H](C(C)C)O[C@@H]2C1CC1 ?
Output line: -1

Input line: Would you mind telling me which call this test gave CC(C)Oc1ccc(C2NC(=O)NC2=O)cc1 (stereo not given) ?
Output line: 1

Input line: Hi, sorry to bother you, what did the test record for COc1ccc(C2Nc3ccccc3C(=O)N2Cc2cccs2)cc1COc1c(C)cccc1C (stereo not given) ?
Output line: -1

Input line: Any idea what this test logged for CCOC(=O)c1ccn(-c2nc(-c3ccco3)cc(C(F)(F)F)n2)n1 ?
Output line: -1

Input line: Which outcome did this test record for the compound CS(=O)(=O)N(C(=O)NC(=O)NC1CCS(=O)(=O)C1)C1CCCCC1 (stereo not given) ?
Output line: -1
